Molecular target: T1, human APRIL protein (human, UniProt O75888 105-250, limits assumed)
T1 construct: Bought protein; also called recombinant APRIL protein
T1 sequence (looked up): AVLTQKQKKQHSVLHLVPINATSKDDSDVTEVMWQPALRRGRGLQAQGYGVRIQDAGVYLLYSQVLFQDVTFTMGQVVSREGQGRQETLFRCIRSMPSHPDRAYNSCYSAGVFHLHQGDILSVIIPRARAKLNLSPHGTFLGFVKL
Experiment: ELISA, coated APRIL; antibody 0 nM (blank)
VALUE KIND: OD450 nm
One number for each entry.

{"BINDER": "35E6F7C3 (antibody, V domains shown, Mouse hybridoma antibody purified on Protein G) VH: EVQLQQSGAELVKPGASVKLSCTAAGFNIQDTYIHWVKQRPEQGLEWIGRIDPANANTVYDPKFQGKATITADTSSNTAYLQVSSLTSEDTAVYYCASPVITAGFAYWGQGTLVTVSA VL: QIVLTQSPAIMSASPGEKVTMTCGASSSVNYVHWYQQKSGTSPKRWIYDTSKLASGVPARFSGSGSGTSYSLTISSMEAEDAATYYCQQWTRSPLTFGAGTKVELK", "OD450 nm": 0.0542}
{"BINDER": "L9G7 (antibody, human IgG1, V domains shown) VH: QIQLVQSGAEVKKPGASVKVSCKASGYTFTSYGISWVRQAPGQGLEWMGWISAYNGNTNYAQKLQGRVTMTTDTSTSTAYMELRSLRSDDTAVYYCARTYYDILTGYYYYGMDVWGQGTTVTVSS VL: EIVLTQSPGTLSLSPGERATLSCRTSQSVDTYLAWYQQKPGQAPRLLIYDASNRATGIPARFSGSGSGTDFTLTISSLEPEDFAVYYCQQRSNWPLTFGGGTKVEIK", "OD450 nm": 0.0638}

Problem: Consider the binder shown here: 97A3C2H4 (antibody, V domains shown, Mouse hybridoma antibody purified on Protein G) VH: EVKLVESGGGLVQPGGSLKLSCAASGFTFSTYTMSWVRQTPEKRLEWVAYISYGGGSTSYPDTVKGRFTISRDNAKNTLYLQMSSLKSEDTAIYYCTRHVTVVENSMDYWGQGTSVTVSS VL: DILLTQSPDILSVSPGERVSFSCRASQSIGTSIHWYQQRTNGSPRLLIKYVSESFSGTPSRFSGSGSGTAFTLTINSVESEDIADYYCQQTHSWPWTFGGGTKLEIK What is its recorded OD450 nm?
Result: 0.0566

Measured values drawn from patent US20210347873A1 for this set.
